src = patent US20210047324A1

assay summary: Oral pharmacokinetics in Sprague Dawley rats (plasma, brain, CSF)
Assay type: in vivo
measurement setup: Sprague-Dawley, po; rat, per os, 10 mg/kg, plasma; read-out: Tmax
assay metric: Tmax (min)
One number for each entry, in min.

Would you please look over these solved cases?
>  <molecule>
O=C1NCCCCC12CCCCN2 (single isomer, unassigned) [AZ, 1,8-diazaspiro[5.6]dodecan-7-one]

>  <Tmax / min>
60

$$$$
>  <molecule>
CC(C)CN1CCCC12CC=CCNC2=O (single isomer, unassigned)

>  <Tmax / min>
25.2

$$$$
>  <molecule>
CN1CC=CCC2(CCCN2Cc2ccccc2)C1=O (single isomer, unassigned)

>  <Tmax / min>
34.8

$$$$

Hi team, please reply with Tmax for each item in this list.
1. O=C1NCCCC12CCCCN2 (single isomer, unassigned) [AX, 1,8-diazaspiro[5.5]undecan-7-one]
2. O=C1NCC=CCC12CC(F)(F)CN2 (single isomer, unassigned)

[60, 30]

Hi team, please reply with Tmax for each item in this list.
1. O=C1NCCCC12CCCN2 (stereo not shown) [EU-2, 1,7-diazaspiro[4.5]decan-6-one]
2. O=C1NCCCCC12CCCNC2 (single isomer, unassigned) [CF, 2,8-diazaspiro[5.6]dodecan-7-one]
3. O=C1NCCCC[C@]12CCCN2 [AU-1, (S)-1,7-diazaspiro[4.6]undecan-6-one]
4. O=C1N(Cc2ccc(F)cc2)CC=CCC12CCCN2 (single isomer, unassigned)
5. CC(C)C(=O)N1CCC2(CCCN2C(=O)C(C)C)C1=O (single isomer, unassigned)
6. O=C1NCC=CC[C@]12CCCN2 [GA, (R)-1,7-diazaspiro[4.6]undec-9-en-6-one]

1. 60
2. 120
3. 60
4. 30
5. 15
6. 30

Hi team, please reply with Tmax for each item in this list.
1. CC(C)C(=O)N1CCCC12CC=CCNC2=O (single isomer, unassigned)
2. CC(C)(C)OC(=O)N1CCCC12CCCNC2=O (single isomer, unassigned)
3. CN1CCCC12CC=CCNC2=O (single isomer, unassigned)
4. NC(=O)CN1CCCC12CC=CCNC2=O (single isomer, unassigned)
5. CC(=O)N1CCCC12CC=CCNC2=O (single isomer, unassigned)

1. 25.2
2. 15
3. 25.2
4. 15
5. 15

====

assay summary: Oral pharmacokinetics in Sprague Dawley rats (plasma, brain, CSF)
Type: in vivo
measurement setup: Sprague-Dawley, rat, plasma, po, 10 mg/kg, per os
Could you please report measured AUC(0-t) for the items listed next?
Give bare numbers, in ng·h/mL.

Would you please look over these solved cases?
>  <molecule>
O=C1N(Cc2ccc(F)cc2)CC=CCC12CCCN2 (single isomer, unassigned)

>  <AUC(0-t) / ng·h/mL>
718

$$$$
>  <molecule>
O=C1NCCCCC12CCCNC2 (single isomer, unassigned) [CF, 2,8-diazaspiro[5.6]dodecan-7-one]

>  <AUC(0-t) / ng·h/mL>
1830

$$$$
>  <molecule>
O=C1NCC=CC[C@]12CCCN2 [GA, (R)-1,7-diazaspiro[4.6]undec-9-en-6-one]

>  <AUC(0-t) / ng·h/mL>
3860

$$$$

Next item in the queue.
Given the entry O=C1NCCCC[C@]12CCCN2 [AU-1, (S)-1,7-diazaspiro[4.6]undecan-6-one] , report its measured AUC(0-t).
6960

====

assay summary: IV pharmacokinetics in Sprague Dawley rats
Format: in vivo
measurement setup: Sprague-Dawley, rat, in vivo, iv, 2 mg/kg, normal saline
Labelling: AUC(0-t) reported below 1000 ng·h/mL becomes yes (1); at or above becomes no (0).

>  <compound>
CC(C)(C)OC(=O)N1CCCC12CCCNC2=O (single isomer, unassigned)

>  <category>
no (0)

$$$$
>  <compound>
O=C1NCCCCC12CCCCN2 (single isomer, unassigned) [AZ, 1,8-diazaspiro[5.6]dodecan-7-one]

>  <category>
no (0)

$$$$
>  <compound>
CN1CC=CCC2(CCCN2Cc2ccccc2)C1=O (single isomer, unassigned)

>  <category>
yes (1)

$$$$
>  <compound>
O=C1NCCCCC12CCCNC2 (single isomer, unassigned) [CF, 2,8-diazaspiro[5.6]dodecan-7-one]

>  <category>
no (0)

$$$$
>  <compound>
CC(=O)N1CCCC12CC=CCNC2=O (single isomer, unassigned)

>  <category>
no (0)

$$$$

Input CC(C)C(=O)N1CCC2(CCCN2C(=O)C(C)C)C1=O (single isomer, unassigned) ; condition: AUC(0-t) strictly below 1000 ng·h/mL. Does it hold?
no (0)

Input NC(=O)CN1CCCC12CC=CCNC2=O (single isomer, unassigned) ; condition: AUC(0-t) strictly below 1000 ng·h/mL. Does it hold?
no (0)

Input CC(C)CN1CCCC12CC=CCNC2=O (single isomer, unassigned) ; condition: AUC(0-t) strictly below 1000 ng·h/mL. Does it hold?
yes (1)

Input O=C1NCCCC12CCCN2 (stereo not shown) [EU-2, 1,7-diazaspiro[4.5]decan-6-one] ; condition: AUC(0-t) strictly below 1000 ng·h/mL. Does it hold?
no (0)

Input O=C1NCC=CC[C@]12CCCN2 [GA, (R)-1,7-diazaspiro[4.6]undec-9-en-6-one] ; condition: AUC(0-t) strictly below 1000 ng·h/mL. Does it hold?
no (0)

====

target system: NMDAR2A (Homo sapiens, UniProt Q12879)
Construct: expressed in transfected cells; host or cells: HEK cells (membrane extract)
Sequence (Q12879 23-1464, species assumed, other chains not shown): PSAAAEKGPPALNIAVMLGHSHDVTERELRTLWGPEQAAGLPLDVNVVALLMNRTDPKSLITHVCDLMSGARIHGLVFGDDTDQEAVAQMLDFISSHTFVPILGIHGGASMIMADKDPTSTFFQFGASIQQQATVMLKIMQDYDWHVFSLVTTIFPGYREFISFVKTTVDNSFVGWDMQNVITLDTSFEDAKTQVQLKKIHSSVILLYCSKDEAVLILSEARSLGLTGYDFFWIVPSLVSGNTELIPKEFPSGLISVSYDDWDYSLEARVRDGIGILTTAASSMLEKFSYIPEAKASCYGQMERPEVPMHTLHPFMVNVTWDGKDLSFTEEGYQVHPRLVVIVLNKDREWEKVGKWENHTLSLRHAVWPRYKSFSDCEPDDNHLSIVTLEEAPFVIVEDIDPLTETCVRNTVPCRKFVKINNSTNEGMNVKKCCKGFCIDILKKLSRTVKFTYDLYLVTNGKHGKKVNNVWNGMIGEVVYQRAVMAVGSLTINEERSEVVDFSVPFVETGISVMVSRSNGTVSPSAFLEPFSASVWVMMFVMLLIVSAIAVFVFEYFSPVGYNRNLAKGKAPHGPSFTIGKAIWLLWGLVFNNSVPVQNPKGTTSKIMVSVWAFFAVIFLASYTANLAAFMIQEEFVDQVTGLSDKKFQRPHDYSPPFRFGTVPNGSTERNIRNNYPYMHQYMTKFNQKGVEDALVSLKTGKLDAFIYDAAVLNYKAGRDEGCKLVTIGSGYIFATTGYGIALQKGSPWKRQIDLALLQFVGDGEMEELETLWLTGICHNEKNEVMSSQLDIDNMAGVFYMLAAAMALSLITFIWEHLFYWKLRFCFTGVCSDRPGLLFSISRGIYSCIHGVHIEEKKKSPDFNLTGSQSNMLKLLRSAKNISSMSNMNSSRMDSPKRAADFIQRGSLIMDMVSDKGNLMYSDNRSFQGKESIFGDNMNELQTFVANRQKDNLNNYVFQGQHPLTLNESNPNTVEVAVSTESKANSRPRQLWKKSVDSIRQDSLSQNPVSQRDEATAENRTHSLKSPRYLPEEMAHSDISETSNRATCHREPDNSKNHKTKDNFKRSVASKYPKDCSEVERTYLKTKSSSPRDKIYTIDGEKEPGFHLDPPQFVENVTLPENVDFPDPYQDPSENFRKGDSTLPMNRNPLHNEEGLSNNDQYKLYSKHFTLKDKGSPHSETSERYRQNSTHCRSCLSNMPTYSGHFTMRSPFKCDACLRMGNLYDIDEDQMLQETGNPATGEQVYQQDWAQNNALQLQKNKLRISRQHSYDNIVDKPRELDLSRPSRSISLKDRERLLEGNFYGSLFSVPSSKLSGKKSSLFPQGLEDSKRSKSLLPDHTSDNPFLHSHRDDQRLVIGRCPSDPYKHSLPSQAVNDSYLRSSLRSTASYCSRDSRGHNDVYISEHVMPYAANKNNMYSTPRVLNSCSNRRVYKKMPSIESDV
assay summary: NMDAR agonist assay, [3H]MK-801 binding, NMDAR2A expressing HEK cell membranes
Format: biochemical
measurement setup: 50 μM glutamate; relative to 1 mM glycine
assay metric: NMDAR2A A: % maximal [3H]MK-801 binding relative to 1 mM glycine

>  <compound>
CC(C)C(=O)N1CCC2(CCCN2C(=O)C(C)C)C1=O (single isomer, unassigned) [GU-1]

>  <data value>
0%

$$$$
>  <compound>
O=C1N(Cc2ccccc2)CC=CCC12CCCN2 (single isomer, unassigned)

>  <data value>
+ (<100%=+)

$$$$
>  <compound>
CC(C)CN1CCCC12CC=CCNC2=O (single isomer, unassigned)

>  <data value>
+ (<100%=+)

$$$$
>  <compound>
O=C1N(Cc2ccc(F)cc2)CC=CCC12CCCN2 (single isomer, unassigned) [GK-1]

>  <data value>
+ (<100%=+)

$$$$

====

assay summary: IV pharmacokinetics in Sprague Dawley rats
Format: in vivo
measurement setup: Sprague-Dawley, rat, in vivo, iv, 2 mg/kg, normal saline, read-out: Vss
Could you please report measured Vd for the items listed next?
Give bare numbers, in L/kg.

Would you please look over these solved cases?
>  <compound>
O=C1NCCCCC12CCCCN2 (single isomer, unassigned) [AZ, 1,8-diazaspiro[5.6]dodecan-7-one]

>  <readout unit>
L/kg

>  <Vd>
0.17

$$$$
>  <compound>
O=C1NCC=CCC12CC(F)(F)CN2 (single isomer, unassigned)

>  <readout unit>
L/kg

>  <Vd>
1.15

$$$$
>  <compound>
CC(C)(C)OC(=O)N1CCCC12CCCNC2=O (single isomer, unassigned)

>  <readout unit>
L/kg

>  <Vd>
0.72

$$$$

Given the entry NC(=O)CN1CCCC12CC=CCNC2=O (single isomer, unassigned) , report its measured Vd.
1.11

====

target system: NMDAR2A (Homo sapiens, UniProt Q12879)
Construct: expressed in transfected cells; host or cells: HEK cells (membrane extract)
assay summary: NMDAR agonist assay, [3H]MK-801 binding, NMDAR2A expressing HEK cell membranes
Format: biochemical
measurement setup: 0.25 h, 50 μM glutamate; relative to 1 mM glycine; read-out: NMDAR2A A: % maximal [3H]MK-801 binding relative to 1 mM glycine
Could you please report measured Emax for the items listed next?

Would you please look over these solved cases?
>  <compound>
CC(C)CN1CCCC12CC=CCNC2=O (single isomer, unassigned)

>  <Emax>
< 100%

$$$$
>  <compound>
O=C1NCC=CC[C@]12CCCN2 [GA, (R)-1,7-diazaspiro[4.6]undec-9-en-6-one]

>  <Emax>
< 100%

$$$$
>  <compound>
O=C1NCCCC[C@@]12CCCN2 [AU-2, (R)-1,7-diazaspiro[4.6]undecan-6-one]

>  <Emax>
0%

$$$$
>  <compound>
O=C1N(Cc2ccccc2)CC=CCC12CCCN2 (single isomer, unassigned)

>  <Emax>
< 100%

$$$$
>  <compound>
NC(=O)CN1CCCC12CC=CCNC2=O (single isomer, unassigned)

>  <Emax>
< 100%

$$$$
>  <compound>
CC(=O)N1CCCC12CC=CCNC2=O (single isomer, unassigned)

>  <Emax>
< 100%

$$$$

Hi team, please reply with Emax for each item in this list.
1. O=C1NCCCC12CCCN2 (centres unmarked) [EU-1, 1,7-diazaspiro[4.5]decan-6-one]
2. O=C1NCCCCC12CCCCN2 (single isomer, unassigned) [AZ, 1,8-diazaspiro[5.6]dodecan-7-one]
3. O=C1NCCCC[C@]12CCCN2 [AU-1, (S)-1,7-diazaspiro[4.6]undecan-6-one]
4. CC(C)(C)OC(=O)N1CCCCCC12CNC2=O (single isomer, unassigned)
5. O=C1NCCCC12CCCNC2 (single isomer, unassigned) [CD, 2,8-diazaspiro[5.5]undecan-1-one]
6. O=C1NCCCCC12CCCNC2 (single isomer, unassigned) [CF, 2,8-diazaspiro[5.6]dodecan-7-one]
7. O=C1NCC=CCC12CCCN2Cc1ccccc1 (single isomer, unassigned)
8. O=C1NCCCC12CCCCN2 (single isomer, unassigned) [AX, 1,8-diazaspiro[5.5]undecan-7-one]

["0%", "< 100%", "< 100%", "< 100%", "< 100%", "< 100%", "< 100%", "< 100%"]
